Cited source for all entries: ChEMBL document CHEMBL1132569

For each entry below, report its Cooperativity value.
- testTarget: Muscarinic acetylcholine receptor M1 (Homo sapiens) (UniProt P11229)
- Sequence (P11229 whole entry): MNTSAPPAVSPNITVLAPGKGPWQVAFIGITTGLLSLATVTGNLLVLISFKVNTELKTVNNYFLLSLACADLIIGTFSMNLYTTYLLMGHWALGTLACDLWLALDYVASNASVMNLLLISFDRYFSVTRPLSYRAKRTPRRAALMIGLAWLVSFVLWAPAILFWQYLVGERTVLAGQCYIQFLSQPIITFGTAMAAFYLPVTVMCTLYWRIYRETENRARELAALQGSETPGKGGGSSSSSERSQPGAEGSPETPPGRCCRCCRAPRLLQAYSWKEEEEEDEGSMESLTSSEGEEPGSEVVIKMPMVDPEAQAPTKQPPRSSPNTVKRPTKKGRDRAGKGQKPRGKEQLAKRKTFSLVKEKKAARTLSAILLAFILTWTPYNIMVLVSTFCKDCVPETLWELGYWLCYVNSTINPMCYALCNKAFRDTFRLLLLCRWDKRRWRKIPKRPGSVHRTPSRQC
- assayComment: Cooperativity with NMS at human muscarinic acetylcholine receptor M1
Kindly provide the number alone.

Problem: Return the recorded Cooperativity value; entry: C#CC[N+]12CC[C@@]34c5ccccc5N5C(=O)C[C@@H]6OCC=C(C1)[C@H](C[C@@H]32)[C@@H]6[C@H]54 (some centres undefined)
Solution: 0.8

Problem: Consider the compound C=CC[N+]12CC[C@@]34c5ccccc5N5/C=C6/[C@H]7C[C@H]8[C@@]9(CC[N@@+]8(CC=C)C/C7=C/CO)c7ccccc7N(/C=C(/[C@@H](C[C@@H]31)/C(=C\CO)C2)[C@H]54)[C@@H]69 (some centres undefined) and give its recorded Cooperativity.
Solution: 0.8

Problem: Identify the reported Cooperativity for the following entry. O=C1C[C@@H]2OCC=C3C[N+]4(CCc5ccccc5)CC[C@]56c7ccccc7N1[C@H]5[C@H]2[C@H]3C[C@@H]64 (some centres undefined)
Solution: 1.19

Problem: Return reported Cooperativity. Input compound: COc1cc2c(cc1OC)[C@@]13CC[N+]4([O-])CC5=CCO[C@H]6CC(=O)N2[C@H]1[C@H]6[C@H]5C[C@@H]34 (some centres undefined)
Solution: 2
